Taken from the supplement of paper PMC9170038.

Tested on: MS2 coat protein
test.details: apparent KD of MS2 coat protein; designed switch direction (-1 OFF switch, 1 ON switch): -1; higher = weaker reporter binding
cond: Eterna round: R95; input ligand: FMN 200 uM
endpoint.name: apparent KD of MS2 coat protein (nM)
Just the number in nM, nothing appended.

Past entries and their recorded results:
AGGAGCAGAGGGAGAUCCAACAUGAGGAUCACCCAUGUCUCAUAAGCUUUUUGCUCAUCUUAUUGUACCUUGGUGCA [Mat - Sensor v3 - turn-off var 1 - JL Mod - D27] (puzzle: Sensor v3, turn-off variant 1) ... 29.2
AAGUACCGUCACGAUAGUGAUGGUACAACAAGCAAAUGUACAUGAGGAUCACCCAUGUCCUCUUUUGCUCGUCUUGU [Sensor 3 - 100] (puzzle: Sensor v3, turn-off variant 2) ... 155
UUUUUCGAACAAGCUACGUACAUGAGGAUCACCCAUGUCGGUAGAUUUGAGUAGGUUUGGAUGGAAGCUCGUCUUAU [JR_SV3TOV1_Sub085] (puzzle: Sensor v3, turn-off variant 1) ... 19.4
GAGAAUUUAUAGGAUAUCGUAUGCAUAAUUUAACGAGAAGGAUGAACAUGAGGAUCACCCAUGUGGUAUCAUGG [salish99_ex6_r3_001] (puzzle: Exclusion 6) ... 88.9
AAUAAGCGAGGAUAUGCGGGCGGGUGCGGCCAGCCGAUGUGACAUGAGGAUCACCCAUGUAGAAGGCGCAAUAA [Excls2-VI] (puzzle: Exclusion 2) ... 15.9

[ask] Which apparent KD of MS2 coat protein value is on record for CAAAAGGAAGGAUAUGAUAAGCAGGACAUGAGGAUCACCCAUGUGACUGCCUCGUGGACAUCAGAAGGUCCAGGAC [Erqureorle] (puzzle: Exclusion 5) ?
[reply] 43.2
